Tested on: hIL-6 mRNA
test-details: Quantification of hIL-6 mRNA in LPS-stimulated U937 macrophages (real-time PCR)
Type: cell-based, human
Design: key: Active: an active compound is one that causes a ≧20% inhibition in IL-6 mRNA at a concentration less than or equal to 10 μM
cond: U937 cells differentiated with PMA, 1 h pretreatment, LPS 1 μg/mL, 3 h; IL-6 mRNA normalised to hCyclophilin; compound ≤10 μM
assay-endpoint: Inhibition of IL-6 expression

COc1cc(OCCOCc2ccccc2)cc2nc(-c3cc(C)c(O)c(C)c3)[nH]c(=O)c12
Active
Cc1cc(-c2nc3cc(OC(C)C)cc(OC(C)C)c3c(=O)[nH]2)cc(C)c1OCCO
Active
COc1cc(OC)c2c(=O)[nH]c(-c3cc(C)c(OCCNc4cc(C)on4)c(C)c3)nc2c1
Active
Cc1cc(-c2nc3cccc(Cl)c3c(=O)[nH]2)cc(C)c1OCCO
Active
Cc1cc(-c2nc3ccc(Nc4ccncc4)cc3c(=O)[nH]2)cc(C)c1O
Active
COc1cc(OC)c2c(=O)[nH]c(-c3cc(C)c(OCCNc4ccon4)c(C)c3)nc2c1
Active
COc1cc(OC)c2c(=O)[nH]c(-c3cc(C)c(OCCNc4nc(C)no4)c(C)c3)nc2c1
Active
COc1cc(OC)c2c(=O)[nH]c(-c3ccc(OCCO)c4ccccc34)nc2c1
Active
Cc1cc(-c2nc3ccc(CN4CCN(C)CC4)cc3c(=O)[nH]2)cc(C)c1OCCO
Active
Cc1cc(-c2nc3ccc(Nc4ccccn4)cc3c(=O)[nH]2)cc(C)c1O
Active
CNC(=O)COc1c(C)cc(-c2nc3cc(OC)cc(OC)c3c(=O)[nH]2)cc1C
Active
COc1cc(OCCOCc2ccccc2)cc2nc(-c3ccc4oc(CO)cc4c3)[nH]c(=O)c12
Active
COc1cc2nc(-c3cc(C)c(OCCO)c(C)c3)[nH]c(=O)c2c(OC)c1CN1CCOCC1.Cl
Active
COc1cc(OC)c2c(=O)[nH]c(-c3cc(C)c(OCCNC=O)c(C)c3)nc2c1
Active
Cc1cc(C)c2c(=O)[nH]c(-c3cc(C)c(OCCO)c(C)c3)nc2n1
Active
COc1cc(OC)c2c(=O)[nH]c(-c3ccc(CCCO)c(OC)c3)nc2c1
Active
COc1cc(OC)c2c(=O)[nH]c(-c3ccc(OCCNc4nnc(-c5ccccc5)[nH]4)c(C)c3)nc2c1
Active
Cc1cc(-c2nc3ccc(CN4CCOCC4)cc3c(=O)[nH]2)cc(C)c1OCCO
Active
COc1cc(OC)c2c(=O)[nH]c(-c3cc(C)c(OCCN(C)C(C)=O)c(C)c3)nc2c1
Active
COc1cc(OC)c2c(=O)[nH]c(-c3cc(C)c(OCCNc4ncccn4)c(C)c3)nc2c1
Active
COc1cc(OC)c2c(=O)[nH]c(-c3cc(C)c(OCCN(C)C=O)c(C)c3)nc2c1
Active
COc1cc(OC)c2c(=O)[nH]c(-c3ccc(OCCO)cc3)nc2c1
Active
COc1cc(OCCOCc2ccccc2)cc2nc(-c3cc(C)c(OCCO)c(C)c3)[nH]c(=O)c12
Active
COc1cc(OC)c2c(=O)[nH]c(-c3cc(C)c(OCCNS(=O)(=O)C(C)C)c(C)c3)nc2c1
Active
Cc1cc(-c2nc3cc(OCCN(C)C)ccc3c(=O)[nH]2)cc(C)c1O
Active
COc1ccc(NC(=O)COc2c(C)cc(-c3nc4cc(OC)cc(OC)c4c(=O)[nH]3)cc2C)cc1
Active
COc1cccc2c(=O)[nH]c(-c3cc(C)c(OCCO)c(C)c3)nc12
Active
COc1cc(OC)c2c(=O)[nH]c(-c3cc(C)c(OCC(O)CO)c(C)c3)nc2c1 (stereo not drawn)
Active
COc1cc(OC)c2c(=O)[nH]c(-c3ccc4cc(CCO)[nH]c4c3)nc2c1
Active
COc1cc(OC)c2c(=O)[nH]c(-c3cc(C)c(OCCNS(=O)(=O)N(C)C)c(C)c3)nc2c1
Active
COc1cc(OC)c2c(=O)[nH]c(-c3cc(C)c(OCCNC#N)c(C)c3)nc2c1
Active
COCCOc1cc(OC)cc2nc(-c3cc(C)c(O)c(C)c3)[nH]c(=O)c12
Active
COc1cc(OC)c2c(=O)[nH]c(-c3cc(OC)c(CCCO)c(OC)c3)nc2c1
Active
